Recorded measurements of growth inhibition, one per entry
test: NCI Yeast Anticancer Drug Screen. Data for the cln2 rad14 strain (AID 165);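 also: 0% = growth equal to vehicle treated cultures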; details: S. cerevisiae cln2 rad14 strain, at 5.0 µM (retest, dose inferred, filed as 0.5), hits give high values
About 79,000 compounds went through this panel and 15% of them were active in at least one assay; those are over-represented in the sample as a whole.
Numeric answer only, unit % assumed.

Consider the following illustrative entries.
Exercise: Retrieve growth inhibition measured for CC1CCCN(CCc2ccccc2)CC1 (stereo not drawn) and print it.
Key: 5

Exercise: Retrieve growth inhibition measured for O=[N+]([O-])/C=C/c1cc2c(cc1Br)OCO2 and print it.
Key: 26

Continuing:
Exercise: Retrieve growth inhibition measured for CCOP(=O)(OCC)/C(C#N)=C/c1ccccc1Cl and print it.
Key: 10

Exercise: Retrieve growth inhibition measured for CC(O)([CH2][Hg][Cl])C(O)[CH2][Hg][Cl] (stereo not drawn) and print it.
Key: 98

Exercise: Retrieve growth inhibition measured for C/C(=N\NC(N)=O)C(CN1CCOCC1)C(c1ccccc1)c1c(O)c2ccccc2oc1=O (stereo not drawn) and print it.
Key: -7

Exercise: Retrieve growth inhibition measured for C[CH2][Pb]([CH2]C)([CH2]C)[n]1cnc2ccccc21 and print it.
Key: -3

Exercise: Retrieve growth inhibition measured for CCOc1ccc(/C=C/[N+](=O)[O-])cc1[N+](=O)[O-] and print it.
Key: 16

Exercise: Retrieve growth inhibition measured for [C](#Cc1ccccc1)[Hg][C]#Cc1ccccc1 and print it.
Key: 26

Exercise: Retrieve growth inhibition measured for O=c1[nH]cc(Cn2cnc3ncccc3c2=O)c(=O)[nH]1 and print it.
Key: -3

Exercise: Retrieve growth inhibition measured for CC(C)C(=O)CP(=O)(O)O and print it.
Key: -31

Exercise: Retrieve growth inhibition measured for O=C1NC(=O)C([N+](=O)[O-])C(=O)N1 and print it.
Key: 29

Exercise: Retrieve growth inhibition measured for CC(C)c1cccc(C(C)C)c1NC(=O)C(=O)CC(=O)CC(c1ccccc1)c1c(O)c2ccccc2oc1=O (stereo not drawn) and print it.
Key: -2

Exercise: Retrieve growth inhibition measured for C[N+](C)(C)CC1CCC(C[N+](C)(C)C)C1=O (stereo not drawn) and print it.
Key: -7

====

assay: NCI Yeast Anticancer Drug Screen. Data for the mlh1 rad18 strain (AID 175); conditions: S. cerevisiae mlh1 rad18 strain growth inhibition; at 50.0 µM (retest, dose inferred, filed as 5.0); hits give high values
This is part of a sample that, as a whole, favours compounds with a hit. Of some 79,000 tested, about 15% had one in any assay.
# cutoff 80% applies to growth inhibition; >= gives T, < gives F

Reference set (6 entries):
Exercise: hey, is growth inhibition for this one >= 80%? S=C=Nc1cccc(Cl)c1
Key: T

Exercise: hey, is growth inhibition for this one >= 80%? O=S(=O)(O)c1ccc(Cl)cc1.[Cd]
Key: F

Exercise: hey, is growth inhibition for this one >= 80%? CC12CCC3C(CCC4CC(N5CCCCC5)=CCC43C)C1CCC2O (configuration not stated)
Key: T

Exercise: hey, is growth inhibition for this one >= 80%? Cn1c2cccc(=O)c-2nc2ccccc21
Key: F

Exercise: hey, is growth inhibition for this one >= 80%? O=C(O)c1cc([N+](=O)[O-])c(Cl)c([N+](=O)[O-])c1Cl
Key: T

Exercise: hey, is growth inhibition for this one >= 80%? C(CCC[Te][Te]CCCCCCOC1CCCCO1)CCOC1CCCCO1 (configuration not stated)
Key: F

As a next step, examine the compound that follows.
Exercise: hey, is growth inhibition for this one >= 80%? Clc1ccc(-c2cc(=[N+]3CC[N+](=c4cc(-c5ccc(Cl)cc5)ss4)CC3)ss2)cc1
Key: F

====

experiment: NCI Yeast Anticancer Drug Screen. Data for the mec2-1 strain (AID 157); conditions: S. cerevisiae mec2-1 strain, at 5.0 µM (retest, dose inferred, filed as 0.5), hits give high values
Compounds without any hit were thinned out: in the full panel of roughly 79,000, 15% have a hit.
# cutoff 60% applies to growth inhibition; >= gives y, < gives n

Reference set (10 entries):
Exercise: hey, is growth inhibition for this one >= 60%? O=C(CCN1CC1)NCCc1ccccc1
Key: n

Exercise: hey, is growth inhibition for this one >= 60%? CC(=O)[O][Hg][c]1ccccc1N
Key: n

Exercise: hey, is growth inhibition for this one >= 60%? O=C([O][Hg][CH2]C1CC(O)CC([CH2][Hg][O]C(=O)c2ccccc2)O1)c1ccccc1 (stereo not given)
Key: y

Exercise: hey, is growth inhibition for this one >= 60%? CC(C)=CC1CC(C)C2(CCC3(C)CC4C(C(=O)CC4(C)O)/C(C=O)=C\CC32)O1 (stereo not given)
Key: y

Exercise: hey, is growth inhibition for this one >= 60%? O=CNc1ccccc1.[Hg]
Key: y

Exercise: hey, is growth inhibition for this one >= 60%? CCNC(=O)O/N=C1/C=C2CC[C@@H]3C(CC[C@@]4(C)C3CC[C@@H]4OC(=O)NCC)[C@@]2(C)CC1 (stereo not given in full)
Key: y

Exercise: hey, is growth inhibition for this one >= 60%? O=C(O)c1cc[c]([Hg])cc1
Key: n

Exercise: hey, is growth inhibition for this one >= 60%? C=C(C)C(=O)OC1CCC2(C)C(CCC3C2CCC2(C)C(c4ccc(=O)oc4)CC4OC432)C1 (stereo not given)
Key: n

Exercise: hey, is growth inhibition for this one >= 60%? O=[As]c1ccc(Cl)cc1Cl (stereo not given)
Key: y

Exercise: hey, is growth inhibition for this one >= 60%? CC(=O)C1CCC2C3CCC4=CC(=[N+]5CCCCC5)CCC4(C)C3CCC12C (stereo not given)
Key: y

Continuing:
Exercise: hey, is growth inhibition for this one >= 60%? C[C@]12Cc3conc3C(O)=C1CC[C@@H]1C2CC[C@@]2(C)C1CC[C@@H]2O (stereo not given in full)
Key: n

Exercise: hey, is growth inhibition for this one >= 60%? COC(=O)C1C2c3ccccc3C(c3ccccc32)C1C(=O)OC (stereo not given)
Key: n

Exercise: hey, is growth inhibition for this one >= 60%? COc1ccc(/C=C/[N+](=O)[O-])c(OC)c1OC
Key: n

Exercise: hey, is growth inhibition for this one >= 60%? O=S(=O)(O)c1ccc(Cl)cc1.[Cd]
Key: n

Exercise: hey, is growth inhibition for this one >= 60%? C=Cc1ccccc1 (tested in a mixture with another compound)
Key: n

Exercise: hey, is growth inhibition for this one >= 60%? Oc1ccc([Te]CCNCC[Te]c2ccc(O)cc2)cc1
Key: n

Exercise: hey, is growth inhibition for this one >= 60%? O=[N+]([O-])c1ccc(N2CCC(CCCC3CCN(c4ccc([N+](=O)[O-])cc4[N+](=O)[O-])CC3)CC2)c([N+](=O)[O-])c1
Key: y

Exercise: hey, is growth inhibition for this one >= 60%? NN1CCCC1C(=O)O (stereo not given)
Key: n

Exercise: hey, is growth inhibition for this one >= 60%? CNC(=O)ON(C(C)=O)C(=O)NC
Key: n

Exercise: hey, is growth inhibition for this one >= 60%? C[C@]12CC[C@H](O)CC1=CC[C@@H]1[C@@H]2CC[C@]2(C)C(=O)CC[C@@H]12
Key: n

====

Test: NCI Yeast Anticancer Drug Screen. Data for the cln2 rad14 strain (AID 165);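 also: 0% = growth equal to vehicle treated cultures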
Conditions: S. cerevisiae cln2 rad14 strain, at 50.0 µM (retest, dose inferred, filed as 5.0), hits give high values
Procedure: Growth inhibition of yeast strains with defined genetic alterations is measured as a screen for potential anti-cancer activity. Selected strains with alterations in DNA damage repair or cell cycle control were exposed to compounds and growth inhibition was measured relative to vehicle treated controls. The strain used in this assay is cln2 rad14
About 79,000 compounds went through this panel and 15% of them were active in at least one assay; those are over-represented in the sample as a whole. The source made the active and inactive calls. Cut-off read from the data, not from the text of the source: active = growth inhibition above about 70%; inactive = the rest.
Recorded measurements of growth inhibition, one per entry

Exercise: Retrieve growth inhibition measured for COc1cc2c(cc1OC)C13CCN4CC5=CCOC6CC(=O)N2C1C6C5CC43 (stereo unspecified) (tested in a mixture with another compound) and print it.
Key: 2% (inactive)

Next up:
Exercise: Retrieve growth inhibition measured for C[N+]1(CCCl)CC[N+](C)(CCCl)CC1 (stereo unspecified) and print it.
Key: 96% (active)

====

assay: NCI Yeast Anticancer Drug Screen. Data for the mlh1 strain (AID 171);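 also: 0% = growth of vehicle-treated control cultures of the same strain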; details: S. cerevisiae mlh1 strain growth inhibition; at 3.7 µM; hits give high values
Compounds without any hit were thinned out: in the full panel of roughly 79,000, 15% have a hit.
ENDPOINT_NAME: growth inhibition (%)
Numeric answer only, unit % assumed.

Exercise: Retrieve growth inhibition measured for O=C(Nc1cc(Cl)ccc1Cl)C(Cl)(Cl)Cl and print it.
Key: 4

Exercise: Retrieve growth inhibition measured for O=C1OC2C(O1)C1(Cl)C(Cl)=C(Cl)C2(Cl)C1(Cl)Cl (stereo not given) and print it.
Key: 0

Exercise: Retrieve growth inhibition measured for C=CC[N+]12CN3CN(CN(C3)C1)C2 and print it.
Key: -22

Exercise: Retrieve growth inhibition measured for Cc1c2ccccc2cc2ccccc12 and print it.
Key: 27

Continuing:
Exercise: Retrieve growth inhibition measured for c1c(N2CCOCC2)ssc1=[N+]1CCOCC1 and print it.
Key: 0

From: PubChem BioAssay (NCI)
